Measured values drawn from PubChem BioAssay (EPA / NIEHS) for this set.

# Read-out: E-selectin (Homo sapiens) (UniProt P16581)
# Sequence (P16581 whole entry, looked up): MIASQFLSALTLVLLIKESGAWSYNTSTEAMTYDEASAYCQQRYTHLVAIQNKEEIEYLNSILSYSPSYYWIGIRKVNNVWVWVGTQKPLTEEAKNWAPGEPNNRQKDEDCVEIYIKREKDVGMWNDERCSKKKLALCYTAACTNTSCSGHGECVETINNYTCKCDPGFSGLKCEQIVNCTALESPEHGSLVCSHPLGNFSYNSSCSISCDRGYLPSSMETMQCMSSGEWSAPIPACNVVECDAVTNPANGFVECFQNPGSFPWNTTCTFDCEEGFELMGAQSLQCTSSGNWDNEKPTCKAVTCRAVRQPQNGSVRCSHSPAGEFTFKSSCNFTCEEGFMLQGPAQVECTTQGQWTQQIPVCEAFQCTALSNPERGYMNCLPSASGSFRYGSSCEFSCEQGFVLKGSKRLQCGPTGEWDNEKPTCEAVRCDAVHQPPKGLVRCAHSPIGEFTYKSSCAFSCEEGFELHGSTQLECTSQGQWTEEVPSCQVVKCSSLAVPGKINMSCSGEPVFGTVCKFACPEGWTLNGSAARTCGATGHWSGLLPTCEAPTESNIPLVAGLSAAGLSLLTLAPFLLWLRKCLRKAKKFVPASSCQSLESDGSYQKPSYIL
# assay.notes: BSK_SAg_Eselectin: BioMAP Diversity Plus: SAg Assay for Eselectin Biomarker Activity (AID 2283091)
# reported.conditions: primary human HUVEC with PBMC; actives raise or lower the signal
# Protocol: BSK_SAg is a cell-based, multiplexed-readout assay that uses umbilical vein endothelium and peripheral blood mononuclear cells, a human vascular primary cell co-culture, with measurements taken at 24 hours after chemical dosing in a 96-well plate.BSK_SAg_Eselectin is an assay component measured in the BSK_SAg assay. It measures E-selectin antibody related to regulation of gene expression using ELISA technology.Data from the assay component BSK_SAg_Eselectin was analyzed into 1 assay endpoint. […]
Calls of active or inactive are those of the source. Rule for the calls: active = hit-call score of the fitted dose curve at least 0.9, where 1 is the maximum; inactive = score below 0.9.
I would appreciate it if you answered using one of these outcomes: y (active), n (inactive)

Solved entries (count: 4):
1. CO[C@@H]1[C@H](OC(=O)NC(=O)CCl)CC[C@]2(CO2)[C@H]1[C@@]1(C)O[C@@H]1CC=C(C)C ... y
2. c1ccc2c(c1)-c1cccc3cccc-2c13 ... y
3. ClC1=C(Cl)[C@]2(Cl)[C@H]3[C@H]([C@@H]4C=C[C@H]3C4)[C@@]1(Cl)C2(Cl)Cl ... y
4. ClC1=C(Cl)C2(Cl)C3C(Cl)C=CC3C1(Cl)C2(Cl)Cl (centres undefined) ... y

Req: Any idea what this test logged for `CN(C)[C@@H]1C(=O)C(C(N)=O)=C(O)[C@@]2(O)C(=O)C3=C(O)c4c(O)cccc4[C@@](C)(O)[C@H]3C[C@@H]12` ?
Resp: n

Req: Any idea what this test logged for `COP(=S)(OC)SCN1C(=O)c2ccccc2C1=O` ?
Resp: n

Req: Any idea what this test logged for `c1ccc(N=Nc2ccccc2)cc1` ?
Resp: n

Req: Any idea what this test logged for `CCCCCCCCn1sccc1=O` ?
Resp: y

Req: Any idea what this test logged for `[As]#[In]` ?
Resp: n

###

# Read-out: Cyclin D1 (CCND1), CCND1 (gene 595)
# assay.notes: LTEA_HepaRG_CCND1: Life Technologies and Expression Analysis (LTEA) Assay for Cyclin D1 (CCND1) using HepaRG (AID 2283451);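 for AC50: differentiated human HepaRG liver cells in serum-free induction medium; TaqMan qRT-PCR transcript level normalised to ACTB GAPDH and POLR2A housekeeping genes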
# reported.conditions: mRNA level, 48 h; actives raise or lower the signal
Calls of active or inactive are those of the source. Rule for the calls: active = hit-call score of the fitted dose curve at least 0.9, where 1 is the maximum; inactive = score below 0.9.
assay.metric: AC50

Example cases with answers are listed next.
1. [Cl-].[Cl-].[Hg+2] ... inactive
2. CCCCCCCCn1sccc1=O ... 83.7 µM (active)
3. OCCOCCO ... inactive
4. c1ccc(NNc2ccccc2)cc1 ... inactive
5. Oc1ccccc1Cl ... inactive

Req: Returns the measured AC50 for the input compound. Input: `Cc1cc(N=Nc2ccccc2C)ccc1N`
Resp: 39.2 µM (active)

###

# assay.notes: APR_HepG2_CellCycleArrest_24hr: Apredica 24-hour HepG2 Assay for Cell Cycle Arrest (AID 2282905);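 note: cell cycle arrest scored as ratio of 2N to 4N nuclear DNA content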
# reported.conditions: imaging, actives raise or lower the signal
Calls of active or inactive are those of the source. Rule for the calls: active = hit-call score of the fitted dose curve at least 0.9, where 1 is the maximum; inactive = score below 0.9.
I would appreciate it if you answered using one of these outcomes: t for active, f for inactive

Solved entries (count: 5):
1. N#CC(Br)Br ... f
2. C1=Cc2cccc3cccc1c23 ... f
3. CCN(CC)CCO ... f
4. ClC1=C(Cl)C2(Cl)C3C(Cl)C=CC3C1(Cl)C2(Cl)Cl (stereo unspecified) ... t
5. Cc1ccc(N=C=O)cc1N=C=O ... f

Req: Any idea what this test logged for `CCC[CH2][Sn]([Cl])([CH2]CCC)[CH2]CCC` ?
Resp: t

Req: Any idea what this test logged for `Cc1cc(N=Nc2ccccc2C)ccc1N` ?
Resp: t

Req: Any idea what this test logged for `CC(C)(O)c1cnn2c(-c3ccc(F)c(-c4c(F)cccc4C#N)c3)cnc2n1` ?
Resp: f

Req: Any idea what this test logged for `CNC(=O)Oc1cccc2c1OC(C)(C)C2` ?
Resp: f

Req: Any idea what this test logged for `Cc1cccc(N)c1N` ?
Resp: f

###

# assay.notes: CCTE_Shafer_MEA_dev_firing_rate_mean: CCTE's Neural Network Formation Assay for Mean Firing Rate, Shafer Lab (AID 2284031);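 note: AUC of well mean spike rate recorded on DIV 5 7 9 and 12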
Active and inactive are the calls of the source. How the source made its calls: active means hit-call score of the fitted dose curve at least 0.9, where 1 is the maximum; inactive means score below 0.9.
I would appreciate it if you answered using one of these outcomes: Yes (active), No (inactive)

Solved entries (count: 5):
1) CCCCOC(=O)c1ccccc1C(=O)OCc1ccccc1 ... No
2) C1=Cc2cccc3cccc1c23 ... No
3) OCCOCCO ... No
4) Nc1cc(Cl)cc(C(=O)O)c1Cl ... No
5) O=P(OCCCl)(OCCCl)OCCCl ... No

Req: Any idea what this test logged for ClC1=C(Cl)C2(Cl)C3C(Cl)C=CC3C1(Cl)C2(Cl)Cl (stereo unspecified) ?
Resp: Yes

###

# Read-out: CD38, CD38 (gene 952)
# assay.notes: BSK_SAg_CD38: BioMAP Diversity Plus: SAg Assay for CD38 Biomarker Activity (AID 2283087)
# reported.conditions: primary human HUVEC with PBMC; actives raise or lower the signal
Calls of active or inactive are those of the source. How the source made its calls: active means hit-call score of the fitted dose curve at least 0.9, where 1 is the maximum; inactive means score below 0.9.
assay.metric: AC50

Example cases with answers are listed next.
1. COc1cc(C=O)cc2c1[C@H](COC(N)=O)[C@]1(OC(C)=O)ON2C[C@H]2[C@@H]1N2C(C)=O ... 15.9 µM (active)
2. CN(C)C(=O)Nc1ccc(Cl)cc1 ... inactive
3. C[C@]12C=CC3=C4CCC(=O)C=C4CC[C@H]3[C@@H]1CC[C@@H]2O ... 4.63 µM (active)
4. OCCCl ... inactive
5. CO[C@@H]1[C@H](OC(=O)NC(=O)CCl)CC[C@]2(CO2)[C@H]1[C@@]1(C)O[C@@H]1CC=C(C)C ... 6.2 µM (active)
6. C1=Cc2cccc3cccc1c23 ... inactive

Req: Returns the measured AC50 for the input molecule. Input: `Nc1ccc(Oc2ccc(N)cc2)cc1`
Resp: inactive

Req: Returns the measured AC50 for the input molecule. Input: `c1ccc(NNc2ccccc2)cc1`
Resp: inactive

###

# assay.notes: ATG_SREBP_CIS: Attagene CIS-FACTORIAL HepG2 Assay for human Sterol Regulatory Element Binding (SREBP) (AID 2282962)
# reported.conditions: HepG2 Attagene cis-factorial SREBP reporter, mRNA; actives raise or lower the signal
The source made the active and inactive calls. Rule for the calls: active = hit-call score of the fitted dose curve at least 0.9, where 1 is the maximum; inactive = score below 0.9.
I would appreciate it if you answered using one of these outcomes: true (1) (active), false (0) (inactive)

1) CC(C)(O)c1cnn2c(-c3ccc(F)c(-c4c(F)cccc4C#N)c3)cnc2n1 ... false (0)
2) Clc1ccc(C(c2ccc(Cl)cc2)C(Cl)(Cl)Cl)cc1 ... false (0)

Req: Any idea what this test logged for `O=C(Oc1ccc(Br)cc1)N1CCN2CCC1CC2` ?
Resp: false (0)

Req: Any idea what this test logged for `CN(C)c1ccccc1` ?
Resp: false (0)

Req: Any idea what this test logged for `CO[C@@H]1[C@H](OC(=O)NC(=O)CCl)CC[C@]2(CO2)[C@H]1[C@@]1(C)O[C@@H]1CC=C(C)C` ?
Resp: false (0)

Req: Any idea what this test logged for `Clc1ccc(Cl)c(Cl)c1` ?
Resp: false (0)

Req: Any idea what this test logged for `CCN(CC)N=O` ?
Resp: false (0)

###

# assay.notes: Tanguay_ZF_120hpf_EYE_legacy: (Legacy) Oregon State University Tanguay Lab 120 Hour Post-fertilization zebrafish Assay for Eye Malformation (AID 2283636);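 note: binary presence or absence of eye malformation scored by brightfield in 120 hpf larvae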
Results filed as inconclusive are left out. Activity calls are given as the source filed them. How the source made its calls: active means hit-call score of the fitted dose curve at least 0.9, where 1 is the maximum; inconclusive means response in the unintended direction; inactive means score below 0.9.
assay.metric: AC50

1) ClC1=C(Cl)C2(Cl)C3C(Cl)C=CC3C1(Cl)C2(Cl)Cl (configuration not stated) ... inactive
2) CCCCCCCCCCCCCN1CC(C)OC(C)C1 (configuration not stated) ... inactive
3) Cc1ccc([N+](=O)[O-])cc1 ... inactive
4) Nc1ccc(N=Nc2ccccc2)cc1 ... inactive
5) N#CC(Br)(Br)C(N)=O ... inactive

Req: Returns the measured AC50 for the input compound. Input: `CN(C)c1ccc(C(=O)c2ccc(N(C)C)cc2)cc1`
Resp: 8.23 µM (active)

Req: Returns the measured AC50 for the input compound. Input: `Cc1ccc(N)cc1`
Resp: inactive

Req: Returns the measured AC50 for the input compound. Input: CCC(C)c1ccc(O)cc1 (configuration not stated)
Resp: inactive

Req: Returns the measured AC50 for the input compound. Input: `O=C(Nc1ccccc1)c1ccccc1I`
Resp: 10.5 µM (active)

Req: Returns the measured AC50 for the input compound. Input: `Cc1ccc(N=C=O)cc1N=C=O`
Resp: inactive

Req: Returns the measured AC50 for the input compound. Input: `Clc1ccccc1Cl`
Resp: inactive

Req: Returns the measured AC50 for the input compound. Input: `CC(C)COC(=O)c1ccccc1C(=O)OCC(C)C`
Resp: 30.5 µM (active)

Req: Returns the measured AC50 for the input compound. Input: `[Cl-].[Cl-].[Hg+2]`
Resp: 1.05 µM (active)

Req: Returns the measured AC50 for the input compound. Input: `CCCCOC(=O)c1ccccc1C(=O)OCc1ccccc1`
Resp: inactive

Req: Returns the measured AC50 for the input compound. Input: `OCCOCCO`
Resp: inactive

Req: Returns the measured AC50 for the input compound. Input: `COC(=O)c1ccccc1N`
Resp: inactive
